Recorded IC50, one value per entry.
Molecular target: Fatty acid synthase (Homo sapiens)
Sequence (P49327 whole entry): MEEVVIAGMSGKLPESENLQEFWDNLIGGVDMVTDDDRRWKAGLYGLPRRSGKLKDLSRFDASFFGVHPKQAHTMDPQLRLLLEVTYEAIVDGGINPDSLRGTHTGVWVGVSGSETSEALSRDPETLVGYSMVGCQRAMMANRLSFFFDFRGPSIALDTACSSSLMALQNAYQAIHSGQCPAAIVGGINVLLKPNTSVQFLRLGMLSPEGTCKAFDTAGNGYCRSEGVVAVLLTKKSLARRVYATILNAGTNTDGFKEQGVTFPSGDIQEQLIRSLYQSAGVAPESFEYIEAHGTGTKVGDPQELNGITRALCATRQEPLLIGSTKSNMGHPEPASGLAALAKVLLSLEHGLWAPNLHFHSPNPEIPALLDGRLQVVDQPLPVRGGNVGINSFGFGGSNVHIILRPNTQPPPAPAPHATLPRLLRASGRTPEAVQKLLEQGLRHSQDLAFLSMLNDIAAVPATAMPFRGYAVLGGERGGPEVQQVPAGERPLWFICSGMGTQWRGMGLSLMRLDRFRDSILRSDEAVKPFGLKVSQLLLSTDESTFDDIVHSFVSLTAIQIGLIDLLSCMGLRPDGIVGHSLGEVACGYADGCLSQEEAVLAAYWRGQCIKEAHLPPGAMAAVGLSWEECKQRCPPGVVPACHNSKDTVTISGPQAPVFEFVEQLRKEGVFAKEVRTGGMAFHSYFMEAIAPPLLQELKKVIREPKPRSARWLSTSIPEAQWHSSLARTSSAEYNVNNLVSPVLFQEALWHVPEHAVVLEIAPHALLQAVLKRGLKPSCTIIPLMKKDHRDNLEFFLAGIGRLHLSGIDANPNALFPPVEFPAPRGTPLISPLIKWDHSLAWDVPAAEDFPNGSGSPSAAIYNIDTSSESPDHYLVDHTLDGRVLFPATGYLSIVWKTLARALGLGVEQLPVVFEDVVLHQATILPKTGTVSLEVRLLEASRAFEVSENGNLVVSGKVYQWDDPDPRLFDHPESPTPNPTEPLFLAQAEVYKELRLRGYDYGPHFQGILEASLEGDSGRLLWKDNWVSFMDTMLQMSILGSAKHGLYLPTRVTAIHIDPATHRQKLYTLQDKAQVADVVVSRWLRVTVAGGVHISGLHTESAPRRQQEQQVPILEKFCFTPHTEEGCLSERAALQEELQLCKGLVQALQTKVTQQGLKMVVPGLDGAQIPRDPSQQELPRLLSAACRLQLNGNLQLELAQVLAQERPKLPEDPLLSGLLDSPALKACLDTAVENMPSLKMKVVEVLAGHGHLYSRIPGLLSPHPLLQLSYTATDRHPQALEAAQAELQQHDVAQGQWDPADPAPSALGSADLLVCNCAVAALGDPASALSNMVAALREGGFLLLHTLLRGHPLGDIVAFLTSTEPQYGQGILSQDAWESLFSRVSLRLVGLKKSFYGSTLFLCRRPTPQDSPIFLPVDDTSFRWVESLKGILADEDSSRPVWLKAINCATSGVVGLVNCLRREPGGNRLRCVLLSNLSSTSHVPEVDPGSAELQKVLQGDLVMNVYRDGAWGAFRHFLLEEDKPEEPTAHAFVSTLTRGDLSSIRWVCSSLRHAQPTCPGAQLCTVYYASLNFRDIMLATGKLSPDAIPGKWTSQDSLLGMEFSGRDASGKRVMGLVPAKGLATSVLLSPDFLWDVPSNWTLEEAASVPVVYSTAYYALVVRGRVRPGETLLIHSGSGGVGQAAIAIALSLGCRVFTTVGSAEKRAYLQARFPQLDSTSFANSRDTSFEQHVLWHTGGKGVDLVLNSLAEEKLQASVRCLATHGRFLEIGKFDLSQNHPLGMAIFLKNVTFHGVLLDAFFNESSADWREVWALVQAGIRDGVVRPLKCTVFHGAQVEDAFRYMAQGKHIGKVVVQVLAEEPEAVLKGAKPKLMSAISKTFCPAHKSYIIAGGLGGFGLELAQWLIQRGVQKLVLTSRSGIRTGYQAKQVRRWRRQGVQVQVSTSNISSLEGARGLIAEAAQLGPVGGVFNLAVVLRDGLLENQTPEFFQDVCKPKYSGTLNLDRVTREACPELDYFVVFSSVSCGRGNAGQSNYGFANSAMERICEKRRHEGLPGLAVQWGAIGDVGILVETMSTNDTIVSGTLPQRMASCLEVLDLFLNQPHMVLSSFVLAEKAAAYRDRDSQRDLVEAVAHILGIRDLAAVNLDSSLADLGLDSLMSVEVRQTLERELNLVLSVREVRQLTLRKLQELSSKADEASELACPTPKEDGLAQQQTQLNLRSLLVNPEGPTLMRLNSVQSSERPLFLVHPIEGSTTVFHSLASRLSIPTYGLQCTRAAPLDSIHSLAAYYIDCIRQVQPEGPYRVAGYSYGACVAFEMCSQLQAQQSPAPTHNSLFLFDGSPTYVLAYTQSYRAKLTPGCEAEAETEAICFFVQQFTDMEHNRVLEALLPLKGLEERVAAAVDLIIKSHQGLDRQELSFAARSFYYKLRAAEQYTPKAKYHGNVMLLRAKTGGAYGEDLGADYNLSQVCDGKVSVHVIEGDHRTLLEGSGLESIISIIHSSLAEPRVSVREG
Assay: inhibition of human FAS-TE enzyme activity – biochemical, endpoint fluorescence intensity, uHTS hits, dose response (AID 624327);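 also: fluorescence from hydrolysis of an O-methyl fluorescein acyl ester substrate by the enzyme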
Assay type: functional
Active and inactive are the calls of the source.

Here is how some molecules turned out for IC50.
[[record]]
molecule = "C[C@H](CO)N1C[C@H](C)[C@@H](CN(C)Cc2ccc(Cl)c(Cl)c2)Oc2c(NS(=O)(=O)c3ccc(F)cc3)cccc2C1=O"
value_type = "IC50"
value = "11.9 µM (active)"

[[record]]
molecule = "CCOc1ccc(C(=O)COC(=O)c2cc([N+](=O)[O-])ccc2N2CCOCC2)cc1"
value_type = "IC50"
value = "6.76 µM (active)"

[[record]]
molecule = "O=C(CC1C[C@H](C(=O)N2CCOCC2)[C@@]2(CCC3CCCC3)c3[nH]c4ccccc4c3CCN2C1=O)NCCc1ccccn1 (stereo partly drawn)"
value_type = "IC50"
value = "1.37 µM (active)"

[[record]]
molecule = "CCc1cccc2sc(N3CCN(C(=O)c4ccc([N+](=O)[O-])o4)CC3)nc12"
value_type = "IC50"
value = "13.3 µM (active)"

[[record]]
molecule = "CC(C)(C)c1ccc(/C=N/NC(=S)NC2CCCCC2)cc1"
value_type = "IC50"
value = "12.7 µM (active)"


Value wanted: IC50 (Fatty acid synthase (Homo sapiens)) of entry O=C(NC(C(=O)N/N=C/c1cc([N+](=O)[O-])ccc1O)c1nnc(O)c2ccccc12)c1ccccc1 (stereo not drawn) 2.76 µM (active)

Value wanted: IC50 (Fatty acid synthase (Homo sapiens)) of entry "Cc1ccc(NC(=O)c2cc([N+](=O)[O-])ccc2N2CCCC2)cc1" 8.09 µM (active)

Value wanted: IC50 (Fatty acid synthase (Homo sapiens)) of entry "O=C(N/N=C/c1ccc(Br)o1)/C(=C/c1ccc([N+](=O)[O-])cc1)NC(=O)c1ccccc1" 9.86 µM (active)

* * *

Biological target: Cytochrome P450 2C9 (Homo sapiens, UniProt P11712)
Sequence (P11712 whole entry): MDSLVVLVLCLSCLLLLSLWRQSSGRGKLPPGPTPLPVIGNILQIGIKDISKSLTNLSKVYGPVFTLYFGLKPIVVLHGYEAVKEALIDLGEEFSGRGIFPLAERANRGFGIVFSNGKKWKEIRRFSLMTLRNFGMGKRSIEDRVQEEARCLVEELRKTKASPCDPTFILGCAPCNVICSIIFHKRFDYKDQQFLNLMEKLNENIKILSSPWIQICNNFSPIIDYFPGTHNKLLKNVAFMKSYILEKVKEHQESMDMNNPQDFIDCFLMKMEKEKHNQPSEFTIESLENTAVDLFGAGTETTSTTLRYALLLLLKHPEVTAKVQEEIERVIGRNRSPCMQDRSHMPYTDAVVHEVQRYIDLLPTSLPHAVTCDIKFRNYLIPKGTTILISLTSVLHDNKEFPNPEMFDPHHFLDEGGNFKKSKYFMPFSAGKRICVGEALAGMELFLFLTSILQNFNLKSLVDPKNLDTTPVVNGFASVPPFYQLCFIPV
value type: AC50

[[record]]
molecule = "CCc1ccc(OCC(=O)Nc2ccc(-c3nc4ccccc4o3)c(O)c2)cc1"
value_type = "AC50"
value = "inconclusive"

[[record]]
molecule = "O=C(NCc1ccc2c(c1)OCO2)C1CC(c2cccc(Br)c2)=NO1 (stereo unspecified)"
value_type = "AC50"
value = "inconclusive"

[[record]]
molecule = "Nc1c2c(nc3ccccc13)CCC[C@H]2O"
value_type = "AC50"
value = "inconclusive"

[[record]]
molecule = "C=CCNc1sc(C(=O)c2ccc(C)cc2)c(N)c1C#N"
value_type = "AC50"
value = "inconclusive"


Would you mind telling me what AC50 value was observed for "CNc1nc(-c2c(C)noc2C)nc2ccccc12" ? inconclusive

Would you mind telling me what AC50 value was observed for COc1cccc2cc(C(=O)CC3(O)C(=O)N(Cc4ccccc4)c4ccccc43)c(=O)oc12 (stereo unspecified) ? inconclusive

Would you mind telling me what AC50 value was observed for C=C(C)C(=O)N1CC2(CC(c3cccc(NC(=O)c4ccccc4)c3)=NO2)C[C@@H]1C(N)=O (stereo partly specified) ? inconclusive

Would you mind telling me what AC50 value was observed for "CCOC(=O)c1c(C)c(C(=O)NCCN2CCOCC2)c(C)n1CC" ? inconclusive

Would you mind telling me what AC50 value was observed for "COc1[nH]c2ccc(F)cc2c1C(=O)OCC1CCN(CCNS(C)(=O)=O)CC1.NS(=O)(=O)O" ? inconclusive

Would you mind telling me what AC50 value was observed for "S=C(NCCSCc1ccc(Cl)cc1Cl)Nc1ccccc1" ? inconclusive

Provenance of the data: ChEMBL document CHEMBL1201862
